Target: exon 20 T790M mutant-type EGFR enzyme (Homo sapiens, UniProt P00533, T790M)
Sequence (P00533 25-1210 T790M): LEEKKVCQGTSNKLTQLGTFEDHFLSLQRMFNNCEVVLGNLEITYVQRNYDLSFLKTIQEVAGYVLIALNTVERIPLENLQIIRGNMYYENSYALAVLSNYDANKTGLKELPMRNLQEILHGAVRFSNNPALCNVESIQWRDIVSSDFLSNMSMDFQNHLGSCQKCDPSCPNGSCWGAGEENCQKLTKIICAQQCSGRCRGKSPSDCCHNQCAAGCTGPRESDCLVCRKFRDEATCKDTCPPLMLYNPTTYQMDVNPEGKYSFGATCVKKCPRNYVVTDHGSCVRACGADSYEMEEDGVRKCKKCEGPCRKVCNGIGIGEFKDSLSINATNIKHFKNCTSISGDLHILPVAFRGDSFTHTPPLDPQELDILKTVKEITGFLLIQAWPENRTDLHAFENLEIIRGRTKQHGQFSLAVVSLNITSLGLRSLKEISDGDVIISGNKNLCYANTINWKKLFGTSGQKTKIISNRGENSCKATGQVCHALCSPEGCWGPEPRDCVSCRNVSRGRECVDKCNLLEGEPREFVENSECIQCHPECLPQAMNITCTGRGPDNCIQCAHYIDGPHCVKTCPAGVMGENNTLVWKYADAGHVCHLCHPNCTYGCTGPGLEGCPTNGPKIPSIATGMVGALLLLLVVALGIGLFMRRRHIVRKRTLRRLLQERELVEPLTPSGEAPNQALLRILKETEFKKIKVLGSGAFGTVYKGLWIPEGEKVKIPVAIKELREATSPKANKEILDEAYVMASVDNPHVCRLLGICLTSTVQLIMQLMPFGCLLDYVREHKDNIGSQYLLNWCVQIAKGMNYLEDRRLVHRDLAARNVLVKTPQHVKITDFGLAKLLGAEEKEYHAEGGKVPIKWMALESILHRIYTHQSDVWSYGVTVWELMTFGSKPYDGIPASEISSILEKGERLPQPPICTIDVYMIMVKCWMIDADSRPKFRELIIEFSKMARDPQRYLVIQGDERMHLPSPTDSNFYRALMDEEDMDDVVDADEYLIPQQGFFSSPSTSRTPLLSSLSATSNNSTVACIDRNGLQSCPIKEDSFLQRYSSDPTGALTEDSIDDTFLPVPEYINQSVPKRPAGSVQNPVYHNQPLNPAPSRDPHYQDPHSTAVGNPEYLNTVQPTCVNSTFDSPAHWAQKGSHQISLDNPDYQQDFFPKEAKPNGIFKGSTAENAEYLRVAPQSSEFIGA
Test: Enzymologic experiment of T790M mutant-type EGFR (TR-FRET)
Format: biochemical
Details: ratio WT IC50 / T790M IC50, enzyme
Kindly supply the reported Selectivity of wild-type/mutant-type values for the records listed here.
Numbers only.

Here's what some known entries look like.
compound	Selectivity of wild-type/mutant-type
C=CC(=O)Nc1cc(Nc2nccc(-n3nc(C)c4cc(C#N)ccc43)n2)c(OC)cc1N(C)CCN(C)C [Example 56]	10.56
C=CC(=O)Nc1cc(Nc2nccc(-n3cnc4ccc(OC)cc43)n2)c(OC)cc1N(C)CCN1CCCC1 [Example 139]	6.36
C=CCn1cc(-c2ccnc(Nc3cc(NC(=O)C=C)c(N(C)CCN(C)C)cc3OC)n2)c2ccccc21 [Example 141]	11.1
C=CC(=O)Nc1cc(Nc2nccc(-n3ncc4cc(OC)ccc43)n2)c(OC)cc1N(C)CCN(C)C [Example 43]	9.8
C=CC(=O)Nc1cc(Nc2nccc(-n3nc(C)c4cc(OC)c(OC)cc43)n2)c(OC)cc1N(C)CCN(C)C [Example 53]	13.50

Below are some compounds; for each one, tell me its Selectivity of wild-type/mutant-type.
1. C=CC(=O)Nc1cc(Nc2nccc(-c3c[nH]c4cc(OC)ccc34)n2)c(OC)cc1N(C)CCN(C)C [Example 97]
2. C=CC(=O)Nc1cc(Nc2nccc(-n3nc(C4CC4)c4cc(OC)ccc43)n2)c(OC)cc1N(C)CCN(C)C [Example 113]

Outgoing:
2.78
4.50
